Just for reference, ChEMBL document CHEMBL1138606 is where these values come from.

Ki values recorded for Nociceptin receptor (Homo sapiens, UniProt P41146)
Quick note: give the figure in nM, leave out the unit.

Field: example entries. Status: answers known.
INSERT INTO results (compound, target, measuredendpoint, quantitativereadout) VALUES
  ('OC1(c2ccccc2)CC2CCCC(C1)N2C(c1ccccc1)c1ccccc1 (stereo not drawn)', 'Nociceptin receptor (Homo sapiens, UniProt P41146)', 'Ki', 7.5),
  ('COC(=O)NC1(c2ccccc2)CC2CCC(C1)N2C(c1ccccc1Cl)c1ccccc1Cl (stereo not drawn)', 'Nociceptin receptor (Homo sapiens, UniProt P41146)', 'Ki', 6);

Consider the record given below.
Entry CC(O)CNC(=O)C1(c2ccccc2)CC2CCC(C1)N2C(c1ccccc1Cl)c1ccccc1Cl (stereo not drawn) — recorded Ki = 11

###

# pKi per entry for Mu-type opioid receptor (Homo sapiens, UniProt P35372)
Would you please state pKi, meaning minus log10 of the concentration in mol/L, as a bare number?

Recorded pKi, per entry:
INSERT INTO assay_data (compound, quantitativereadout) VALUES
  ('OC1(c2ccccc2)CC2CCCC(C1)N2C(c1ccccc1)c1ccccc1 (stereo unspecified)', 6.29),
  ('OC1(c2cccnc2)C2CCC1CN(C(c1ccccc1Cl)c1ccccc1Cl)C2 (stereo unspecified)', 5.14),
  ('OC1(c2cncs2)CC2CCC(C1)N2C(c1ccccc1Cl)c1ccccc1Cl (stereo in doubt; 11b)', 5.83),
  ('COc1ccc(C2(C(N)=O)CC3CCC(C2)N3C(c2ccccc2Cl)c2ccccc2Cl)cc1 (stereo unspecified)', 7.23),
  ('COCCNC(=O)C1(c2ccccc2)CC2CCC(C1)N2C(c1ccccc1Cl)c1ccccc1Cl (stereo unspecified)', 7.22),
  ('COc1ccc(CC2(O)CC3CCC(C2)N3C(c2ccccc2Cl)c2ccc(C)cc2Cl)nc1 (stereo unspecified)', 6.42);

Lab note: compound OC1(c2cccnn2)CC2CCC(C1)N2C(c1ccccc1Cl)c1ccccc1Cl (stereo in doubt; 11c) tested on Mu-type opioid receptor (Homo sapiens, UniProt P35372); recorded pKi was 6.33

Reading of pKi for CCNC(=O)C1(c2ccccc2)CC2CCC(C1)N2C(c1ccccc1Cl)c1ccccc1Cl (stereo unspecified) with Mu-type opioid receptor (Homo sapiens, UniProt P35372): 6.67

###

Heads up, these molecules all have Ki values measured for Nociceptin receptor (Homo sapiens).
Remember to follow the number with its unit.

FCC1(c2ccccc2)CC2CCC(C1)N2C(c1ccccc1Cl)c1ccccc1Cl (configuration not stated) has a reported Ki of 3150 nM

Entry NC(=O)C1(c2ccc(F)cc2)CC2CCC(C1)N2C(c1ccccc1Cl)c1ccccc1Cl (configuration not stated) ; Ki = 16 nM

###

pKi values for the molecules below.
# target: Mu-type opioid receptor (Homo sapiens)
# Sequence (P35372 whole entry): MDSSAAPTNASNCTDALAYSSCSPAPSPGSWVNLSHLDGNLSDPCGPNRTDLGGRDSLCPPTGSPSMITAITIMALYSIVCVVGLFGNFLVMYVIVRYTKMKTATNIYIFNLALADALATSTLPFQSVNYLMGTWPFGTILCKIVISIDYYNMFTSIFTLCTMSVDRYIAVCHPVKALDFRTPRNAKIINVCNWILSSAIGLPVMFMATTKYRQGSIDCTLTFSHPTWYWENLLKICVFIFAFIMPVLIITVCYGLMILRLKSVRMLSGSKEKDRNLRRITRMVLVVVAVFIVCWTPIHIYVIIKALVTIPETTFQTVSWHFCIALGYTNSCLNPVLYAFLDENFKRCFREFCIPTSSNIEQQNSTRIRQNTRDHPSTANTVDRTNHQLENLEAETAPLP
Reminder that pKi is minus the log10 of a molar concentration.

A selection of reference data follows.
INSERT INTO results (molecule, quantitativereadout) VALUES
  ('Cc1ccc(C(c2ccccc2Cl)N2C3CCC2CC(O)(c2ccncn2)C3)c(Cl)c1 (stereo not drawn)', 6.27),
  ('Cc1ccc(C(c2ccccc2Cl)N2C3CCC2CC(O)(C2CCCC2)C3)c(Cl)c1 (stereo not drawn)', 6.98),
  ('COC1(c2ccccc2)CC2CCC(C1)N2C(c1ccccc1Cl)c1ccccc1Cl (stereo not drawn)', 6.20),
  ('NC(=O)C1(c2ccc(F)cc2)CC2CCC(C1)N2C(c1ccccc1Cl)c1ccccc1Cl (stereo not drawn)', 6.90),
  ('Cc1ccc(C(c2ccccc2Cl)N2C3CCC2CC(O)(C2=NCCCN2)C3)c(Cl)c1 (stereo not drawn)', 6.21);

Item: OC1(c2ccccc2)CC2CCC(C1)N2C(c1ccccc1Cl)c1ccccc1Cl (stereo not drawn) | pKi: 7.66

Record OCC1(c2ccccc2)CC2CCC(C1)N2C(c1ccccc1Cl)c1ccccc1Cl (stereo not drawn) . Reported pKi: 6.20

pKi reported for this molecule O/N=C/C1(c2ccccc2)CC2CCC(C1)N2C(c1ccccc1Cl)c1ccccc1Cl (stereo not drawn) : 6.22

###

# target: UniProt:P41146
# key: entry, value: Ki
The response must be a number in nM with no trailing unit.

Solved entries:
INSERT INTO results (compound, quantitativereadout) VALUES
  ('OC1(c2cccnc2)C2CCC1CN(C(c1ccccc1Cl)c1ccccc1Cl)C2 (stereo not given)', 908),
  ('Cc1ccc(C(c2ccccc2Cl)N2C3CCC2CC(O)(c2cccc(F)c2)C3)c(Cl)c1 (stereo not given)', 2.7),
  ('COc1ccc(C2(C(N)=O)CC3CCC(C2)N3C(c2ccccc2Cl)c2ccccc2Cl)cc1 (stereo not given)', 22);

Measured Ki for this entry NC(=O)C1(c2ccc(Cl)cc2)CC2CCC(C1)N2C(c1ccccc1Cl)c1ccccc1Cl (stereo not given) on UniProt:P41146: 31

Log: UniProt:P41146, compound OC1(c2cncs2)CC2CCC(C1)N2C(c1ccccc1Cl)c1ccccc1Cl (stereo in doubt; 11b) , Ki = 19
